System: Staphylococcus aureus
Experiment: Antibacterial activity against methicillin-resistant Staphylococcus aureus
Format: functional, organism-based
MEASURED_ATTRIBUTE: IC50 (µg/mL)
Give the quantity in µg/mL, number only.

In [3]: df
Out[3]:
                                   molecule            system_name  observed_measurement
0  [O-][n+]1ccc2c([nH]c3ccccc32)c1C1=C[C@@]2(O)CC/C=C\CCCCN3CC[C@@H]1[C@]1(C[C@@H]4/C=C\CCCCN4[C@H]12)C3  Staphylococcus aureus                   0.4
1  OC1=C[C@@]2(O)CC/C=C\CCCCN3CC[C@@H]1[C@]1(C[C@@H]4/C=C\CCCCN4[C@H]12)C3  Staphylococcus aureus                    30
2  O[C@]12C=C(c3nccc4c3[nH]c3ccccc34)C3CCN(CCCC/C=C\CC1)C[C@@]31C[C@]34CC[C@H](CCCN3[C@H]12)O4 (some centres undefined)  Staphylococcus aureus                   1.5

Continue with the next molecule.
q: Give me measured IC50, please, for this molecule: Oc1ccc2[nH]c3c(C4=C[C@@]5(O)CC/C=C\CCCCN6CC[C@@H]4[C@@]4(C6)C[C@@]67CC[C@@H](CCCN6[C@H]45)O7)nccc3c2c1
a: 0.75
